Origin of measurements: patent US8592486B2

System: chemotactic response of porcine T cells to MIP-1α
Assay: T cell chemotaxis (cell migration) assay, porcine T cells
Type: cell-based, pig
Conditions: Sus scrofa, 10 ng/ml MIP-1α, 2 hr migration, averages of triplicates, read-out: IC50, inhibition of chemotactic response of porcine T cells
Description: Twenty ml aliquots of heparinized whole blood (2 pig, 1 human) were subjected to density gradient centrifugation on Ficoll Hypaque. The buffy coat layers representing peripheral blood mononuclear cells (PBMCs) containing lymphocytes and monocytes were washed once, resuspended in 12 ml of incomplete RPMI 1640 and then placed in gelatin-coated T75 culture flasks for 1 hr at 37° C. […] The T cell preparations were centrifuged, resuspended in 5 ml of incomplete RPMI, and counted using a hemocytometer. […]
test readout: IC50

structure notation	result
COC(=O)c1ccc(C)c(-c2ccc(NC(=O)c3c(F)cccc3F)cc2)c1	~5 nM
